- System: Escherichia coli IAI1
- TEST PROTOCOL: fold change of Putrescine concentration vs plate DMSO controls (fold change (ratio)); higher = more amine produced, active = hit call of the paper (significant change in both replicates, either direction);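 for the amine columns active = adjusted P below 0.05 in both replicates with a change the same way and a mean fold change under 0.8 or over 1.25; inactive = the rest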
- EXPERIMENTAL SETUP: incubation time: 27 h, anaerobic, 37 °C
Where a name gives a salt, the structure may show the parent alone.
Tick one outcome: yes (active), no (inactive)

Worked cases, answers included:
• CCc1c(C)[nH]c2c1C(=O)C(CN1CCOCC1)CC2 (centres undefined) [Molindone hydrochloride] (20 µM) = no
• OC(Cn1cncn1)(Cn1cncn1)c1ccc(F)cc1F [Fluconazole] (20 µM) = no
• CO/N=C(\C(=O)N[C@@H]1C(=O)N2C(C(=O)[O-])=C(C[n+]3ccn4ncccc43)CS[C@H]12)c1nsc(N)n1 [Cefozopran hydrochloride] (20 µM) = yes
• C/C=C(/C(=C/C)c1ccc(O)cc1)c1ccc(O)cc1 [Dienestrol] (20 µM) = no
• CCOC(=O)N1CCC(=C2c3ccc(Cl)cc3CCc3cccnc32)CC1 [Loratadine] (20 µM) = no

Please let me know the test result on file for CCCCC(=O)N(Cc1ccc(-c2ccccc2-c2nnn[nH]2)cc1)[C@H](C(=O)O)C(C)C [Valsartan] (20 µM) .
no

Please let me know the test result on file for C#C[C@]1(O)CC[C@H]2[C@@H]3CCC4=CC(=O)CC[C@@H]4[C@H]3CC[C@@]21C [Norethindrone] (20 µM) .
no
